System: SKBR3
Experiment: normalised growth rate inhibition (GR value) relative to DMSO control (GR (1 = untreated growth, 0 = cytostasis, <0 = cytotoxic)); higher = less growth inhibition
Conditions: 0.37 µM; 72 h
Please enter yes where normalised growth rate inhibition is greater than or equal to -0.08, and no where it is lower.

[
  {
    "structure.string": "O=C1c2c(O)ccc(O)c2C(=O)c2c(NCCNCCO)ccc(NCCNCCO)c21",
    "test.target": "SKBR3",
    "assigned.category": "no"
  },
  {
    "structure.string": "COc1cc(OC)cc(-c2ccc3ncc4ccc(=O)n(-c5ccc(N6CCNCC6)c(C(F)(F)F)c5)c4c3c2)c1",
    "test.target": "SKBR3",
    "assigned.category": "yes"
  },
  {
    "structure.string": "COc1cc2ncn(-c3cc(OCc4ccccc4C(F)(F)F)c(C(N)=O)s3)c2cc1OC",
    "test.target": "SKBR3",
    "assigned.category": "no"
  },
  {
    "structure.string": "CC(C)CC(=O)Nc1n[nH]c2c1CN(C(=O)C1CCN(C)CC1)C2(C)C",
    "test.target": "SKBR3",
    "assigned.category": "yes"
  },
  {
    "structure.string": "COc1cc(N2CCC(N3CCN(C)CC3)CC2)ccc1Nc1ncc(Cl)c(Nc2ccccc2S(=O)(=O)C(C)C)n1",
    "test.target": "SKBR3",
    "assigned.category": "yes"
  }
]
